- Tested target: MED13L/HLA complex on MED13L-pulsed T2 cells (human)
- Protocol text: flow cytometry, T2 cells pulsed with 25 µM MED13L peptide, antibody 10 µg/mL

Binder: 7B9-IgG1-SI (antibody, V domains shown) VH: EVQLVESGGGVVQPGGSLRLSCAASGFTFDDYAMHWVRQAPGKGLEWVSLISGDDGSTYYADSMKGRITISRDNSKNSLYLQMNSLRTEDTAMYYCAKASYGSGSYLYNYGMDVWGQGTTVTVFS VL: DIQLTQSPSSLSASVGDRVTITCQASQDIINYLNWYQQKPGKAPKLLIYDTSNLETGVPSRFSGSGSGTDFAFTINSLQPEDIATYYCQQFVNLPLTFGGGTKVEIK
Unit string: %
Percentage of Positive Cells (%): 7.68
//
Binder: P01264-IgG1-SI (antibody, V domains shown) VH: EVQLVESGGGLVKPGGSLRLSCAASGFTFSNAWMNWVRQAPGKGLEWVGRIKSKTDGGTTDYAAPVKGRFTISRHDSKNTLYLQMNSLKTEDTAVYYCATDPRIAVTGTDYYYGMDVWGQGTTVTVSS VL: DIVMTQTPSFLSASVGDRVTITCRASQDISNYLNWYQQKPGKAPKLLIYDASNLETGVPSRFSGSGSGTDFTFTISSLQPEDIATYYCQQYDNLPITFGQGTRLEIK
Unit string: %
Percentage of Positive Cells (%): 5.87
//
Binder: 1G7-IgG1-SI (antibody, V domains shown) VH: QVQLVESGGGVVRPGGSLRLSCTASGFTFDDYGMTWVRQAPGKGLEWVSGINWNGGSTGYADSVKGRFTISRDNAKNSLFLQMNSLRAEDTALYYCARDQGIAVVGTHYYYYYGMDVWGQGTAVTVSS VL: EIVLTQSPATLSLSPGERATLSCRASQSFSSYLAWYQQKPGQAPRLLIFDTSNRATGIPARFSGSGSGTDFTLTISSLEPEDFAVYYCQQRSNWPLTFGGGTKVEIK
Unit string: %
Percentage of Positive Cells (%): 5.12
//
Binder: 3A6-IgG1-SI (antibody, V domains shown) VH: QVQLQESGPGMVKPSETLSLTCTVSGGSISYNYWSWIRQPPGKGLEWIGYIYHSGTTKYNPSLKSRVTMSVDTSKNHFSLKLNSVTAADTAVYYCARHEDYWFFDLWGRGTLVTVSS VL: DIQMTQSPSSLSASVGDRVTITCRASQGISNYLVWFQQKPGKAPKSLIYAASILQSGVPSKFSGSGSGTDFTLTINSLQPEDFATYYCQQYNTYPFTFGPGTKVDIK
Unit string: %
Percentage of Positive Cells (%): 5.72
//
Binder: 4F10-IgG1-SI (antibody, V domains shown) VH: QVQLQESGPGLVKPSETLSLTCTVSGGSISNYYWSWIRQPPGKGLEWIGYIYYSGSTNYNPSLKSRVNISVDTSKSQVSLKLNSVIAADTAVYYCARHEDYWYFDLWGRGTLVTVSS VL: DIQLTQSPSSLSASIRDRVTITCRASQDINNYLAWFQQKPGKAPKSLIYAVSSLESGVPSKFSGSGSGTDFTLTISSLQPEDFATYFCQQYNSYPFTFGPGTKVEIK
Unit string: %
Percentage of Positive Cells (%): 13.1
